molecular target: Scl-70 (UniProt P11387); assay: AtheNA, Ab 12.5 ug/ml
Sequence (P11387 2-765 limits assumed): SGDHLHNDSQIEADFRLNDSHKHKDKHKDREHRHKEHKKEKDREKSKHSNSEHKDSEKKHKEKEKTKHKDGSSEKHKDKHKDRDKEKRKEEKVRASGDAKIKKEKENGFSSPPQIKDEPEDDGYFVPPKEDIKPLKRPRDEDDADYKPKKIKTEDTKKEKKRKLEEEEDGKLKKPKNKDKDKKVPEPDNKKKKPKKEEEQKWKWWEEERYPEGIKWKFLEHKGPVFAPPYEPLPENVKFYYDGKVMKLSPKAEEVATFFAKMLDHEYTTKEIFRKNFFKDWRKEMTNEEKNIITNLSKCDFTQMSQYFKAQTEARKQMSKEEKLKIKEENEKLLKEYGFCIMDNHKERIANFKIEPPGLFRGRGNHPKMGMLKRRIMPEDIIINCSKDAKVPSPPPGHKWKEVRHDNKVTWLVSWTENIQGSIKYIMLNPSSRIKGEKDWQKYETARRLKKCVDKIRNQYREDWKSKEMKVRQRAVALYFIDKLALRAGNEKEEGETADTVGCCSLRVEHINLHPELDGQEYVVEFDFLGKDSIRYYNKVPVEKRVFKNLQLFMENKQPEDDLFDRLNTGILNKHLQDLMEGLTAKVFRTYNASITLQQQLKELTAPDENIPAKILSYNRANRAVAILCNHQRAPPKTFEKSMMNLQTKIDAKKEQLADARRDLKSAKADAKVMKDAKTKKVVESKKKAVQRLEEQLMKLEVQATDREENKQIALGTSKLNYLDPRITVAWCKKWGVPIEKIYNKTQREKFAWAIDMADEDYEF
property.measured: Athena reading (relative luminescence units)

binder	test.value
CH236_4A/293i (antibody, from a related filing, V domains shown) VH: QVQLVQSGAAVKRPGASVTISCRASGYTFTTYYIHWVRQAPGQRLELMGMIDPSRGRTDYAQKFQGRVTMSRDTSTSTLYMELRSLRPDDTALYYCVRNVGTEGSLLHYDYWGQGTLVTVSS VL: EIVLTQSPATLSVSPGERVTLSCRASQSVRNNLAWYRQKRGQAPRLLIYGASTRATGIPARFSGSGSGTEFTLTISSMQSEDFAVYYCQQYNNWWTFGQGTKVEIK	50

Record Athena reading (relative luminescence units) for all entries; do not skip any.
1. CH241 (antibody, from a related filing, V domains shown) VH: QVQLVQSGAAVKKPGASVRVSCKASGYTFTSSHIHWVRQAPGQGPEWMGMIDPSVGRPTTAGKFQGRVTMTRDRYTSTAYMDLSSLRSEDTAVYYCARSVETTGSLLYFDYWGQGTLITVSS VL: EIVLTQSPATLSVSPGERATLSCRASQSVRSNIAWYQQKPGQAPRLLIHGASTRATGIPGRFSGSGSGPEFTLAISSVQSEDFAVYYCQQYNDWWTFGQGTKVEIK
2. CH240_4A/293i (antibody, from a related filing, V domains shown) VH: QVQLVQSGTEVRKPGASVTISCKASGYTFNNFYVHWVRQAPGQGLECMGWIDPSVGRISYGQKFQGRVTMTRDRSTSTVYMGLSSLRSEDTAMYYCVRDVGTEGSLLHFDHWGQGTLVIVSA VL: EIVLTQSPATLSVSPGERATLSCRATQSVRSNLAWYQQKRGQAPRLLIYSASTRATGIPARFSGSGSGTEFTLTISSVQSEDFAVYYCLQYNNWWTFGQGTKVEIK
3. CH235_4A (antibody, from a related filing, V domains shown) VH: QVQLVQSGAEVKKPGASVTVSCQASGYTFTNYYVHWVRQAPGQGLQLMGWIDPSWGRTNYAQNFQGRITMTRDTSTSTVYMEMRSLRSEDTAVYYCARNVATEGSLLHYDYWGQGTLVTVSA VL: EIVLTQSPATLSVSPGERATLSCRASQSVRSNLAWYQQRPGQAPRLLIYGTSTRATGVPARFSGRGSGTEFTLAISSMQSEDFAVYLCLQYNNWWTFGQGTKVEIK

stdout:
3
4
2
